Sourced from ChEMBL document CHEMBL3232986

Would you mind telling me the reported clearance of each entry?
testMethodNotes: Clearance in rat after 6 hrs
Assay type: ADME, organism-based
conditionInfo: in vivo
Your answer is read as mL/min/kg, so omit the unit and give the number.

# compound COc1ccc2c(c1)[C@@H]1C[C@]1(C(=O)N1CC34CCC3(CN(C)C4)C1)Cn1c-2c(C2CCCCC2)c2ccc(C(=O)NS(=O)(=O)C(C)C)cc21 (some centres not stated) ; its clearance = 24

# compound COc1ccc2c(c1)[C@@H]1C[C@]1(C(=O)N1CC34CN(C)CC3(CN(C)C4)C1)Cn1c-2c(C2CCCCC2)c2ccc(C(=O)NS(=O)(=O)C(C)C)cc21 (some centres not stated) ; its clearance = 25

# compound COc1ccc2c(c1)[C@@H]1C[C@]1(C(=O)N1CC34COCC3(CN(C)C4)C1)Cn1c-2c(C2CCCCC2)c2ccc(C(=O)NS(=O)(=O)C(C)C)cc21 (some centres not stated) ; its clearance = 27

# compound COc1ccc2c(c1)[C@@H]1C[C@]1(C(=O)N1CC34COCC3(CN(C(C)=O)C4)C1)Cn1c-2c(C2CCCCC2)c2ccc(C(=O)NS(=O)(=O)N(C)C)cc21 (some centres not stated) ; its clearance = 19

# compound CCN1CC23COCC2(C1)CN(C(=O)[C@]12C[C@H]1c1cc(OC)ccc1-c1c(C4CCCCC4)c4ccc(C(=O)NS(=O)(=O)C(C)C)cc4n1C2)C3 (some centres not stated) ; its clearance = 49

# compound COc1ccc2c(c1)[C@@H]1C[C@]1(C(=O)N1CC34CCCC3(CN(C)C4)C1)Cn1c-2c(C2CCCCC2)c2ccc(C(=O)NS(=O)(=O)C(C)C)cc21 (some centres not stated) ; its clearance = 31

# compound CCOCCN1CC23COCC2(C1)CN(C(=O)[C@]12C[C@H]1c1cc(OC)ccc1-c1c(C4CCCCC4)c4ccc(C(=O)NS(=O)(=O)C(C)C)cc4n1C2)C3 (some centres not stated) ; its clearance = 81

====

testMethodNotes: Cytotoxicity against human HuH7 cells after 4 hrs by CellTitre-Blue assay
Format: cell-based, Huh-7
endpointName: CC50 at 4 h (µM)
Your answer is read as µM, so omit the unit and give the number.

# molecule COc1ccc2c(c1)[C@@H]1C[C@]1(C(=O)N1CC34COCC3(CN(CC(F)(F)F)C4)C1)Cn1c-2c(C2CCCCC2)c2ccc(C(=O)NS(=O)(=O)N(C)C)cc21 (stereo partly drawn) ; its CC50 at 4 h = 7

# molecule CCOCCN1CC23COCC2(C1)CN(C(=O)[C@]12C[C@H]1c1cc(OC)ccc1-c1c(C4CCCCC4)c4ccc(C(=O)NS(=O)(=O)C(C)C)cc4n1C2)C3 (stereo partly drawn) ; its CC50 at 4 h = 19

# molecule COc1ccc2c(c1)[C@@H]1C[C@]1(C(=O)N1CC34CCC3(C1)CN(S(=O)(=O)C(C)C)C4)Cn1c-2c(C2CCCCC2)c2ccc(C(=O)NS(=O)(=O)N(C)C)cc21 (stereo partly drawn) ; its CC50 at 4 h = 5

====

testMethodNotes: Cytotoxicity against human HuH7 cells after 4 hrs by CellTitre-Blue assay
Format: cell-based, Huh-7
Flag rule - CC50 at 4 h less than 10 µM flags 1 (yes); the remaining entries get 0 (no).

Input: Quick check: CC50 at 4 h of COc1ccc2c(c1)[C@@H]1C[C@]1(C(=O)N1CC34CCC3(CN(C(=O)N3CCCC3)C4)C1)Cn1c-2c(C2CCCCC2)c2ccc(C(=O)NS(=O)(=O)C(C)C)cc21 (stereo not given in full) under 10 µM?
Output: 0 (no)

Input: Quick check: CC50 at 4 h of COC(=O)N1CC23COCC2(C1)CN(C(=O)[C@]12C[C@H]1c1cc(OC)ccc1-c1c(C4CCCCC4)c4ccc(C(=O)NS(=O)(=O)N(C)C)cc4n1C2)C3 (stereo not given in full) under 10 µM?
Output: 1 (yes)

Input: Quick check: CC50 at 4 h of COc1ccc2c(c1)[C@@H]1C[C@]1(C(=O)N1CC34COCC3(C1)CN(S(=O)(=O)C(C)C)C4)Cn1c-2c(C2CCCCC2)c2ccc(C(=O)NS(=O)(=O)C(C)C)cc21 (stereo not given in full) under 10 µM?
Output: 0 (no)

Input: Quick check: CC50 at 4 h of COc1ccc2c(c1)[C@@H]1C[C@]1(C(=O)N1CC34COCC3(C1)CN(S(=O)(=O)C(C)C)C4)Cn1c-2c(C2CCCCC2)c2ccc(C(=O)NS(=O)(=O)N(C)C)cc21 (stereo not given in full) under 10 µM?
Output: 0 (no)
